B1: library; numbered along this chain (parent)
chain: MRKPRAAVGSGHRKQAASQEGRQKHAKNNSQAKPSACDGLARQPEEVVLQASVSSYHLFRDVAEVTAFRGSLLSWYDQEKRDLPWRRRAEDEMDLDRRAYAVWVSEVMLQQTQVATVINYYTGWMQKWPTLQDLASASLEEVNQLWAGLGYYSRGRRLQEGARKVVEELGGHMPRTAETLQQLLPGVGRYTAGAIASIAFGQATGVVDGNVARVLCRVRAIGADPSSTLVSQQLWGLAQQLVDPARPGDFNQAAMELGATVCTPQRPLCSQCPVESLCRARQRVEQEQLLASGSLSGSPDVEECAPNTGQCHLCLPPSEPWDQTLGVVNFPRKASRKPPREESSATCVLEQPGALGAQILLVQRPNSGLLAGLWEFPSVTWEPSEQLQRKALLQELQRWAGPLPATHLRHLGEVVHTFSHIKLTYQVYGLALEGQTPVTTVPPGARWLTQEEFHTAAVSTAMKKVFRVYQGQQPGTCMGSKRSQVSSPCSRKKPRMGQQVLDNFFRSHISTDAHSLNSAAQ

variants of: B1; assay: 8OG:A repair function score (normalized; synonymous = 0, nonsense = -1) (normalized log-likelihood score); higher = more repair activity (WT-like); details: with 8OG:A DNA repair reporter (GFP) in HEK-293 MUTYH KO cells;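 note: cells sorted at 72 h after reporter transfection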
# label = bin(measured 8OG:A repair function score), where bins are low bin (below -0.2), mid bin (-0.2 to below 0.04), high bin (0.04 or more)

Example entries begin here.
A456C
mid bin
V206A
low bin
E46Q
high bin
L325E
mid bin
K481E
mid bin

Field: class (8OG:A repair function score) — entry: `W447E`
low bin

Field: class (8OG:A repair function score) — entry: `M173Q`
low bin

Field: class (8OG:A repair function score) — entry: `D96I`
low bin

Field: class (8OG:A repair function score) — entry: `T439V`
high bin

Field: class (8OG:A repair function score) — entry: `W381L`
high bin

Measured values drawn from the supplement of paper PMC11908140 for this set.
